test system: Streptococcus pyogenes; experiment: Bactericidal activity against Streptococcus pyogenes 12-207 expressing mef incubated for 20 to 24 hrs followed by sub-culturing for 24 hrs in absence of compound; type: functional
MBC values, listed per item

Solved cases (2 shown):
COMPOUND SMILES	MBC
C=CCN(C)[C@H]1C[C@@H](C)O[C@@H](O[C@@H]2[C@@H](C)C(=O)[C@@H](C)C(=O)O[C@H](CC)[C@@]3(C)OC(=O)O[C@@H]3[C@@H](C)/C(=N/OC/C=C/c3cnc4ccccc4c3)[C@H](C)C[C@@]2(C)OC)[C@@H]1O	1 µg/mL
C#CCN(C)[C@H]1C[C@@H](C)O[C@@H](O[C@@H]2[C@@H](C)C(=O)[C@@H](C)C(=O)O[C@H](CC)[C@@]3(C)OC(=O)O[C@@H]3[C@@H](C)/C(=N/OC/C=C/c3cnc4ccccc4c3)[C@H](C)C[C@@]2(C)OC)[C@@H]1O	> 8 µg/mL

Qu. # returns recorded MBC (system: Streptococcus pyogenes) for CC[C@H]1OC(=O)[C@H](C)[C@@H](O[C@H]2C[C@@](C)(OC)[C@@H](O)[C@H](C)O2)[C@H](C)[C@@H](O[C@@H]2O[C@H](C)C[C@H](N(C)C)[C@H]2O)[C@](C)(OC)C[C@@H](C)C(=O)[C@H](C)[C@@H](O)[C@]1(C)O
Ans. 32 µg/mL

Qu. For the record CC[C@H]1OC(=O)[C@@](C)(F)C(=O)[C@H](C)[C@@H](O[C@@H]2O[C@H](C)C[C@H](N(C)C)[C@H]2O)[C@](C)(OC)C[C@@H](C)/C(=N\OC/C=C/c2ccc3ncccc3c2)[C@H](C)[C@H]2OC(=O)O[C@@]21C , what value of MBC is listed for Streptococcus pyogenes?
Ans. > 0.5 µg/mL

Qu. Look up MBC with Streptococcus pyogenes for this compound: CC[C@H]1OC(=O)[C@H](C)C(=O)[C@H](C)[C@@H](O[C@@H]2O[C@H](C)C[C@H](N(C)C)[C@H]2O)[C@](C)(OC)C[C@@H](C)/C(=N\OC/C=C/c2cnc3ccccc3c2)[C@H](C)[C@H]2OC(=O)O[C@@]21C
Ans. > 0.125 µg/mL

Qu. Give Streptococcus pyogenes MBC for CC[C@H]1OC(=O)[C@@](C)(F)C(=O)[C@H](C)[C@@H](O[C@@H]2O[C@H](C)C[C@H](N(C)C)[C@H]2O)[C@](C)(OC)C[C@@H](C)/C(=N\OC/C=C/c2cnc3ccccc3c2)[C@H](C)[C@H]2OC(=O)O[C@@]21C
Ans. > 0.5 µg/mL

Qu. Form: Entry = CC[C@H]1OC(=O)[C@H](C)C(=O)[C@H](C)[C@@H](O[C@@H]2O[C@H](C)C[C@H](N(C)C)[C@H]2O)[C@](C)(OC)C[C@@H](C)/C(=N\OCC#Cc2cncc3ccccc23)[C@H](C)[C@H]2OC(=O)O[C@@]21C | System = Streptococcus pyogenes | MBC = ____
Ans. > 0.125 µg/mL

Qu. Recorded MBC for CC[C@H]1OC(=O)[C@@](C)(F)C(=O)[C@H](C)[C@@H](O[C@@H]2O[C@H](C)C[C@H](N(C)C)[C@H]2O)[C@](C)(OC)C[C@@H](C)/C(=N\OCC#Cc2cncc3ccccc23)[C@H](C)[C@H]2OC(=O)O[C@@]21C with Streptococcus pyogenes, please?
Ans. > 0.25 µg/mL

Qu. # value lookup — system Streptococcus pyogenes, readout MBC, item CC[C@H]1OC(=O)[C@H](C)C(=O)[C@H](C)[C@@H](O[C@@H]2O[C@H](C)C[C@H](N(C)C)[C@H]2O)[C@](C)(OC)C[C@@H](C)C(=O)[C@H](C)[C@H]2N(CCCCn3cnc(-c4cccnc4)c3)C(=O)O[C@]12C
Ans. 1 µg/mL

Origin of values: ChEMBL document CHEMBL4004878
